Experiment: Half-life of BPP followed spectroscopically at 265 nm
Assay type: physicochemical
Conditions: phosphate buffer (enzyme-free ultrafiltrate of the reaction), pH 6, 0.1 M phosphate, first-order decay, after removal of D1*D2D3 by ultrafiltration, read-out: half-life (t1/2)
Procedure: The synthesis and t1/2 of BPP was determined spectroscopically at 265 nm. The synthesis of BPP with D1*D2D3 sonicate and 10 mM glucosone in a 500 μL reaction was followed until the absorbance reached ˜1.4 (about 14 minutes). […] The decay of A265 was normalized to the highest and lowest measured values, with the highest A265 set to 1 and the lowest to 0. […]
READOUT_NAME: half-life

>>> df
                                   compound  experimental_value
0  O=C1C(O)=C[C@@H](CO)OC1O (stereo partly shown)             3.7 min
